Entries annotated with measured pEC50
# System: HRV-14
# experimental.protocol: Antirhinoviral H1-HeLa cell culture assay (cell protection, XTT), HRV-14
# Type: cell-based, human rhinovirus
# study.conditions: Rhinovirus B, HRV14, 48 h; HRV-14, H1-HeLa cells, XTT, two days; read-out: Cell Protection EC50
pEC50 here is simply -log10 of the concentration when that concentration is written in mol/L.

- CCOC(=O)/C=C/[C@H](CCC(N)=O)NC(=O)c1ccc(N(C)C)cc1: 5.41
- CCOC(=O)/C=C/[C@H](CCC(N)=O)NC(=O)c1cc(C(C)(C)C)nn1Cc1ccccc1: 4.90
- CCOC(=O)/C=C/[C@H](CCC(N)=O)NC(=O)/C=C/c1ccccc1: 4.50
- CCOC(=O)/C=C/[C@H](CCC(N)=O)NC(=O)/C=C/c1cccc(Br)c1: 5.49

Param readout = pEC50; param system = HRV-14; param query = Cc1cc(CCCOc2c(C)cc(-c3noc(C(F)(F)F)n3)cc2C)on1 [Pleconaril, reference compound] ; response: value
8.00
